# System: phospho-ERK in A549 (KRAS G12S) cells
# test: Cell-based pERK (pERK:tERK) in A549 cells
# condition notes: A549; 12-point dose
property: pIC50
On this scale, pIC50 is minus log10 of a concentration expressed in M (mol/L).

CNS(=O)(=O)Nc1cccc(Cc2c(CN(C)C)c3ccc(OC(=O)N(C)C)cc3oc2=O)c1F yielded pIC50 of 7.70

---

List of CLint (L/hr/kg) values.
# Tested on: wistar hannover rat hepatocytes
# test: Hepatocyte stability, wistar hannover rat
# Format: in vitro ADME
# condition notes: 2 μM, 0.5 million cells/ml
API: value field is a number in L/h/kg; no unit string.

Some entries whose results are on file:
>>> reported_value("CNS(=O)(=O)Nc1cccc(Cc2c(CN(C)C)c3ccc(OC(=O)N(C)C)cc3oc2=O)c1F")
2.84
>>> reported_value("CNS(=O)(=O)Nc1cccc(Cc2c(CN(C)C)c3cc(F)c(OC(=O)N(C)C)cc3oc2=O)c1F")
1.38
>>> reported_value("CCCS(=O)(=O)Nc1cccc(Cc2c(CN3CCNCC3)c3cc(Cl)c(OC(=O)N(C)C)cc3oc2=O)c1F")
3.16
>>> reported_value("CNS(=O)(=O)Nc1cccc(Cc2c(CN3CCNCC3)c3cc(F)c(OC(=O)N(C)C)cc3oc2=O)c1F")
1.39
>>> reported_value("CCS(=O)(=O)Nc1cccc(Cc2c(CN(C)C)c3ccc(OC(=O)N(C)C)cc3oc2=O)c1F")
3.07

Input CNS(=O)(=O)Nc1nccc(Cc2c(CN(C)C)c3ccc(OC(=O)N(C)C)cc3oc2=O)c1F . Output CLint (L/hr/kg): 3.06
